Study System: Cyclin-dependent kinase 2 (Homo sapiens, UniProt P24941)
pIC50: −log10 of the molar value.

[
  {
    "Entry Smiles": "Cc1cnc(Nc2ccnn2C)nc1-c1cc2n(c1)C(=O)N([C@H](CO)c1cccc(Cl)c1)C2",
    "pIC50": 7.00
  }
]

---

Experiment Description: Clearance in Beagle dog plasma at 0.5 mg/kg, iv and measured after 24 hrs by LC/MS/MS analysis
Assay type: ADME, organism-based, Canis lupus familiaris

[
  {
    "Entry Smiles": "Cc1cnc(Nc2ccnn2C)nc1-c1cc2n(c1)C(=O)N([C@H](CO)c1cccc(Cl)c1)C2",
    "clearance (mL/min/kg)": 10.5
  }
]
